Data provenance is ChEMBL document CHEMBL1123969.

Some compounds, each annotated with its measured ED20.
# Test system: Felis catus
# Assay: Effective dose for lowering blood pressure in anesthetized cat when administered intravenously
# Format: functional
# Experimental Parameters: iv

Compound	Assayed Target	ED20 / mg/kg
C=C[C@@]1(C)CC(=O)[C@]2(O)C3(C)C(C(OC(=O)CN4CCCC(C)C4)C(O)[C@@]2(C)O1)C(C)(C)CC[C@@H]3O.Cl (stereo partly drawn)	Felis catus	5.4
C=C[C@@]1(C)CC(=O)[C@]2(O)C3(C)C(C(O)C(OC(=O)CN4CCC(NC(=O)c5ccccc5)CC4)[C@@]2(C)O1)C(C)(C)CC[C@@H]3O (stereo partly drawn)	Felis catus	3
C=C[C@@]1(C)CC(=O)[C@]2(O)C3(C)C(C(OC(=O)CN4CCN(C)CC4)C(O)[C@@]2(C)O1)C(C)(C)CC[C@@H]3O.Cl (stereo partly drawn)	Felis catus	1.3
